Measured IC50 of individual entries
- studySystem: Glycogen synthase kinase-3 beta (Homo sapiens, UniProt P49841)
- Sequence (P49841 whole entry): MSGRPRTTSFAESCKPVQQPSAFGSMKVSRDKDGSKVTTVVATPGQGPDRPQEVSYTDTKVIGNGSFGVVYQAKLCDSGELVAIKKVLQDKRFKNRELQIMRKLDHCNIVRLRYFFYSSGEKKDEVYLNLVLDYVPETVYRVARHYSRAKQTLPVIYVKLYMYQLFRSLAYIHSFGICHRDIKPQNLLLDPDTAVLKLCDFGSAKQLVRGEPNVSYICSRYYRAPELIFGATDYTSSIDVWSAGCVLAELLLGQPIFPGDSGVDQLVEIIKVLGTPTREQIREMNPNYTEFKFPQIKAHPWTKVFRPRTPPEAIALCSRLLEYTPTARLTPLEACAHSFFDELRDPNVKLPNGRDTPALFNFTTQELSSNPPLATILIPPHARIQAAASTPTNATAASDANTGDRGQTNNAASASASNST
The figure you give is taken to be in nM; do not add the unit.

Worked cases, IC50 given:
Reported IC50 for `O=C(NCCCNc1c2c(nc3ccccc13)CCCC2)c1sc(-c2ccnc(NC(=O)C3CCC3)c2)nc1OCC1CC1` : what is it?
80.7

// same read-out, input: `O=C(NCCCNc1c2c(nc3ccccc13)CCCC2)c1sc(-c2ccnc(NC(=O)C3CC3)c2)nc1OCC1CC1`
104

`CNC(=O)c1sc(-c2ccnc(NC(=O)C3CC3)c2)nc1OCCCc1cn(CCNc2c3c(nc4ccccc24)CCCC3)nn1` , same question.
64.3

New cases:
Name the recorded IC50 for `CNC(=O)c1sc(-c2ccnc(NC(=O)CNCCNc3c4c(nc5ccccc35)CCCC4)c2)nc1OC(C)C` .
71.6

For `CNC(=O)c1sc(-c2ccnc(NC(=O)CNCCCCCCCCNc3c4c(nc5ccccc35)CCCC4)c2)nc1OCC1CC1` then?
62.2

====

Measured IC50 on Acetylcholinesterase (Homo sapiens) follows.
Sequence (P22303 whole entry): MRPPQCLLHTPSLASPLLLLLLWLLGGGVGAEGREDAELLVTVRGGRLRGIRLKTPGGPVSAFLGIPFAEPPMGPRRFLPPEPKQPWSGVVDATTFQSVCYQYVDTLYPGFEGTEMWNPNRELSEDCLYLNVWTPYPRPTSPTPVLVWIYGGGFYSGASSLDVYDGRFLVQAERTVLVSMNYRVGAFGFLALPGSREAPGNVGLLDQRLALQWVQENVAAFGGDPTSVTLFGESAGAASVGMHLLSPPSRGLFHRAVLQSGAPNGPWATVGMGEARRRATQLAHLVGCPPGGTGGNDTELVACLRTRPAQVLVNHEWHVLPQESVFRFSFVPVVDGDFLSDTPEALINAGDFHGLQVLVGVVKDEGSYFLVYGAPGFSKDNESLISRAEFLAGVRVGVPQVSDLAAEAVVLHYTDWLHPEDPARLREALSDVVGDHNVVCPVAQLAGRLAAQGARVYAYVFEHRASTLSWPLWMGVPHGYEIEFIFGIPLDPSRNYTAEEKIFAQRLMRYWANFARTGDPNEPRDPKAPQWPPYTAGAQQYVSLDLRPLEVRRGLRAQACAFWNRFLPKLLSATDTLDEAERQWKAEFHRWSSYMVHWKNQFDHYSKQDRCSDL

Consider the following illustrative entries.
// query IC50 value for entry `CNC(=O)c1sc(-c2ccnc(NC(=O)C3CC3)c2)nc1OCCCc1cn(CCNc2c3c(nc4ccc(OC)cc24)CCCC3)nn1`
> 1000 nM

Same lookup for `CNC(=O)c1sc(-c2ccnc(NC(=O)C3CC3)c2)nc1OCCc1cn(-c2c3c(nc4ccccc24)CCCC3)nn1` , please.
> 1000 nM

Next:
Would you mind telling me what IC50 value was observed for `CNC(=O)c1sc(-c2ccnc(NC(=O)C3CC3)c2)nc1OCCOCc1cn(CCNc2c3c(nc4ccc(OC)cc24)CCCC3)nn1` ?
> 1000 nM
